FYI, the data here is from paper PMC4409382.

biological target: 14-3-3ζ (Homo sapiens); construct: Both full-length 14-3-3ζ and 14-3-3ζΔC12 were expressed as N-terminally His-tagged protein; His tag (TEV-cleavable) (N, cleaved yes); made in house; host or cells: Escherichia coli BL21 (DE3) pLysS; test: ITC of Cby peptides titrated into 14-3-3ζ; format: binding; conditions: 25°C, 50 mM sodium phosphate, 100 mM NaCl, 1 mM DTT, pH 6.8, one-site model, Table 1 set of duplicate experiments
Square brackets hold non-standard residues; d marks the D form. Peptide text beside a SMILES is read from it. pS = N[C@@H](COP(=O)(O)O)C(=O)O
READOUT: n (binding stoichiometry of monomeric 14-3-3 and Cby peptide)
One number for each entry.

- MOLECULE: "CC(=O)N[C@@H](CCCNC(=N)N)C(=O)N[C@@H](CCCCN)C(=O)N[C@@H](CO)C(=O)N[C@@H](C)C(=O)N[C@@H](COP(=O)(O)O)C(=O)N[C@@H](CC(C)C)C(=O)N[C@@H](CO)C(N)=O [Cby 7-mer] (Ac-RKSA[pS]LS-NH2)"
  TEST_SYSTEM: "14-3-3ζ (Homo sapiens)"
  VALUE: 1.01
- MOLECULE: "CC(C)C[C@H](NC(=O)[C@H](CO)NC(=O)[C@H](Cc1c[nH]cn1)NC(=O)[C@H](CC(C)C)NC(=O)[C@H](CC(N)=O)NC(=O)[C@@H]1CCCN1C(=O)[C@H](CC(C)C)NC(=O)[C@H](COP(=O)(O)O)NC(=O)[C@H](C)NC(=O)[C@H](CO)NC(=O)[C@H](CCCCN)NC(=O)[C@H](CCCNC(=N)N)NC(=O)[C@@H]1CCCN1C(=O)[C@@H]1CCCN1C(=O)[C@@H](NC(=O)[C@@H](N)CCCCN)[C@@H](C)O)C(=O)N[C@@H](CC(=O)O)C(=O)N[C@@H](CCCNC(=N)N)C(=O)O [Cby 18-mer S22P] (H-KTPPRKSA[pS]LPNLHSLDR-OH)"
  TEST_SYSTEM: "14-3-3ζ (Homo sapiens)"
  VALUE: 1.05
- MOLECULE: "CC(=O)N[C@@H](CCCNC(=N)N)C(=O)N[C@@H](CCCCN)C(=O)N[C@@H](CO)C(=O)N[C@@H](C)C(=O)N[C@@H](COP(=O)(O)O)C(=O)N[C@@H](CC(C)C)C(=O)N1CCC[C@H]1C(N)=O [Cby 7-mer S22P] (Ac-RKSA[pS]LP-NH2)"
  TEST_SYSTEM: "14-3-3ζ (Homo sapiens)"
  VALUE: 1.03

Name the reported n (binding stoichiometry of monomeric 14-3-3 and Cby peptide) value associated with the molecule CC(C)C[C@H](NC(=O)[C@H](COP(=O)(O)O)NC(=O)[C@H](C)NC(=O)[C@H](CO)NC(=O)[C@H](CCCCN)NC(=O)[C@H](CCCNC(=N)N)NC(=O)[C@@H]1CCCN1C(=O)[C@@H]1CCCN1C(=O)[C@@H](NC(=O)[C@@H](N)CCCCN)[C@@H](C)O)C(=O)N[C@@H](CO)C(=O)N[C@@H](CC(N)=O)C(=O)N[C@@H](CC(C)C)C(=O)N[C@@H](Cc1c[nH]cn1)C(=O)N[C@@H](CO)C(=O)N[C@@H](CC(C)C)C(=O)N[C@@H](CC(=O)O)C(=O)N[C@@H](CCCNC(=N)N)C(=O)O [Cby 18-mer] (H-KTPPRKSA[pS]LSNLHSLDR-OH)
0.96

###

target: 14-3-3ζ (Homo sapiens, UniProt P63104); construct: Both full-length 14-3-3ζ and 14-3-3ζΔC12 were expressed as N-terminally His-tagged protein; His tag (TEV-cleavable) (N, cleaved yes); made in house; host or cells: Escherichia coli BL21 (DE3) pLysS; test: ITC of Cby peptides titrated into 14-3-3ζ; type: binding; conditions: 25°C, pH 6.8, duplicate set (S1 Table)
Square brackets hold non-standard residues; d marks the D form. Peptide text beside a SMILES is read from it. pS = N[C@@H](COP(=O)(O)O)C(=O)O
READOUT: n (binding stoichiometry of monomeric 14-3-3 and Cby peptide)

- MOLECULE: "CC(C)C[C@H](NC(=O)[C@H](CO)NC(=O)[C@H](Cc1c[nH]cn1)NC(=O)[C@H](CC(C)C)NC(=O)[C@H](CC(N)=O)NC(=O)[C@@H]1CCCN1C(=O)[C@H](CC(C)C)NC(=O)[C@H](COP(=O)(O)O)NC(=O)[C@H](C)NC(=O)[C@H](CO)NC(=O)[C@H](CCCCN)NC(=O)[C@H](CCCNC(=N)N)NC(=O)[C@@H]1CCCN1C(=O)[C@@H]1CCCN1C(=O)[C@@H](NC(=O)[C@@H](N)CCCCN)[C@@H](C)O)C(=O)N[C@@H](CC(=O)O)C(=O)N[C@@H](CCCNC(=N)N)C(=O)O [Cby 18-mer S22P] (H-KTPPRKSA[pS]LPNLHSLDR-OH)"
  TEST_SYSTEM: "14-3-3ζ (Homo sapiens, UniProt P63104)"
  VALUE: 1.08
- MOLECULE: "CC(C)C[C@H](NC(=O)[C@H](CC(N)=O)NC(=O)[C@@H]1CCCN1C(=O)[C@H](CC(C)C)NC(=O)[C@H](COP(=O)(O)O)NC(=O)[C@H](C)NC(=O)[C@H](CO)NC(=O)[C@H](CCCCN)NC(=O)[C@H](CCCNC(=N)N)NC(=O)[C@@H]1CCCN1C(=O)[C@@H]1CCCN1C(=O)[C@@H](NC(=O)[C@@H](N)CCCCN)[C@@H](C)O)C(=O)O [Cby 13-mer S22P] (H-KTPPRKSA[pS]LPNL-OH)"
  TEST_SYSTEM: "14-3-3ζ (Homo sapiens, UniProt P63104)"
  VALUE: 1.02
- MOLECULE: "CC(C)C[C@H](NC(=O)[C@H](COP(=O)(O)O)NC(=O)[C@H](C)NC(=O)[C@H](CO)NC(=O)[C@H](CCCCN)NC(=O)[C@H](CCCNC(=N)N)NC(=O)[C@@H]1CCCN1C(=O)[C@@H]1CCCN1C(=O)[C@@H](NC(=O)[C@@H](N)CCCCN)[C@@H](C)O)C(=O)N[C@@H](CO)C(=O)N[C@@H](CC(N)=O)C(=O)N[C@@H](CC(C)C)C(=O)N[C@@H](Cc1c[nH]cn1)C(=O)N[C@@H](CO)C(=O)N[C@@H](CC(C)C)C(=O)N[C@@H](CC(=O)O)C(=O)N[C@@H](CCCNC(=N)N)C(=O)O [Cby 18-mer] (H-KTPPRKSA[pS]LSNLHSLDR-OH)"
  TEST_SYSTEM: "14-3-3ζ (Homo sapiens, UniProt P63104)"
  VALUE: 0.94

Name the reported n (binding stoichiometry of monomeric 14-3-3 and Cby peptide) value associated with the molecule CC(C)C[C@H](NC(=O)[C@H](COP(=O)(O)O)NC(=O)[C@H](C)NC(=O)[C@H](CO)NC(=O)[C@H](CCCCN)NC(=O)[C@H](CCCNC(=N)N)NC(=O)[C@@H]1CCCN1C(=O)[C@@H]1CCCN1C(=O)[C@@H](NC(=O)[C@@H](N)CCCCN)[C@@H](C)O)C(=O)N[C@@H](CO)C(N)=O [Cby 11-mer] (H-KTPPRKSA[pS]LS-NH2)
0.96

###

Target: 14-3-3ζ (Homo sapiens)
Construct: Both full-length 14-3-3ζ and 14-3-3ζΔC12 were expressed as N-terminally His-tagged protein; His tag (TEV-cleavable) (N, cleaved yes); made in house; host or cells: Escherichia coli BL21 (DE3) pLysS
Sequence (P63104 1-245): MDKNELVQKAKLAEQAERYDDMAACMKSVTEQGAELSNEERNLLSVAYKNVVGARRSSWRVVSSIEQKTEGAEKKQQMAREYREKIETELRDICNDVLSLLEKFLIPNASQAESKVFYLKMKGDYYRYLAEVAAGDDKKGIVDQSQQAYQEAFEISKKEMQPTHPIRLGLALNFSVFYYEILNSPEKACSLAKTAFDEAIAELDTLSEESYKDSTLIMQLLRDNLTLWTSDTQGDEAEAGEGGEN
Assay: ITC of Cby peptides titrated into 14-3-3ζ
Format: binding
Details: 298.15 K, pH 6.8, Table 1 set of duplicate experiments
Square brackets hold non-standard residues; d marks the D form. Peptide text beside a SMILES is read from it. pS = N[C@@H](COP(=O)(O)O)C(=O)O
READOUT: ΔH (kJ/mol)
Numbers only, in kJ/mol.

Name the reported ΔH value associated with the molecule CC(C)C[C@H](NC(=O)[C@H](COP(=O)(O)O)NC(=O)[C@H](C)NC(=O)[C@H](CO)NC(=O)[C@H](CCCCN)NC(=O)[C@H](CCCNC(=N)N)NC(=O)[C@@H]1CCCN1C(=O)[C@@H]1CCCN1C(=O)[C@@H](NC(=O)[C@@H](N)CCCCN)[C@@H](C)O)C(=O)N[C@@H](CO)C(=O)N[C@@H](CC(N)=O)C(=O)N[C@@H](CC(C)C)C(=O)N[C@@H](Cc1c[nH]cn1)C(=O)N[C@@H](CO)C(=O)N[C@@H](CC(C)C)C(=O)N[C@@H](CC(=O)O)C(=O)N[C@@H](CCCNC(=N)N)C(=O)O [Cby 18-mer] (H-KTPPRKSA[pS]LSNLHSLDR-OH)
-18.2
